System: Escherichia coli TOP10;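 note: peptides expressed intracellularly from a pBAD plasmid library in pooled LB shake-flask culture, induced with 0.3% L-arabinose, DNA abundance read by NGS, three biological replicates, DESeq2 with apeglm shrinkage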
Experiment: shrunken log2 fold change of peptide-encoding DNA abundance (4.5 h post-induction vs induction); higher = less antimicrobial activity (less host growth inhibition)
Conditions: time post-induction: 4.5 h; library: site-saturation at positions 5, 18, 19, 20
Label Met for high-side shrunken log2 fold change (at or above 0.007) and Not met for low-side shrunken log2 fold change (below it).

Below, 4 sequences whose answers are already recorded.
sequenceString: RRIRLRPPRLPRPRPRPMGCPRP
assignedClass: Met
//
sequenceString: RRIRNRPPRLPRPRPRPSSCPRP
assignedClass: Not met
//
sequenceString: RRIRYRPPRLPRPRPRPKYAPRP
assignedClass: Not met
//
sequenceString: RRIRVRPPRLPRPRPRPMMKPRP
assignedClass: Met

Query: Determine whether this sequence has shrunken log2 fold change no lower than 0.007: `RRIRWRPPRLPRPRPRPADPPRP`
Result: Met

Query: Does `RRIRPRPPRLPRPRPRPGWEPRP` have a reported shrunken log2 fold change of at least 0.007?
Result: Met

Query: Item `RRIRYRPPRLPRPRPRPFTPPRP` with shrunken log2 fold change of 0.007 or above?
Result: Not met

Query: Hello, I need to know if `RRIRLRPPRLPRPRPRPGMKPRP` has measured shrunken log2 fold change not below 0.007. Thanks!
Result: Not met

Query: Threshold query (shrunken log2 fold change >= 0.007) on `RRIRRRPPRLPRPRPRPANMPRP`
Result: Not met

Query: Given the entry `RRIRWRPPRLPRPRPRPACCPRP` , answer whether its shrunken log2 fold change meets or surpasses 0.007.
Result: Met
